Target: ROCK I (Homo sapiens)
Sequence (Q13464 whole entry): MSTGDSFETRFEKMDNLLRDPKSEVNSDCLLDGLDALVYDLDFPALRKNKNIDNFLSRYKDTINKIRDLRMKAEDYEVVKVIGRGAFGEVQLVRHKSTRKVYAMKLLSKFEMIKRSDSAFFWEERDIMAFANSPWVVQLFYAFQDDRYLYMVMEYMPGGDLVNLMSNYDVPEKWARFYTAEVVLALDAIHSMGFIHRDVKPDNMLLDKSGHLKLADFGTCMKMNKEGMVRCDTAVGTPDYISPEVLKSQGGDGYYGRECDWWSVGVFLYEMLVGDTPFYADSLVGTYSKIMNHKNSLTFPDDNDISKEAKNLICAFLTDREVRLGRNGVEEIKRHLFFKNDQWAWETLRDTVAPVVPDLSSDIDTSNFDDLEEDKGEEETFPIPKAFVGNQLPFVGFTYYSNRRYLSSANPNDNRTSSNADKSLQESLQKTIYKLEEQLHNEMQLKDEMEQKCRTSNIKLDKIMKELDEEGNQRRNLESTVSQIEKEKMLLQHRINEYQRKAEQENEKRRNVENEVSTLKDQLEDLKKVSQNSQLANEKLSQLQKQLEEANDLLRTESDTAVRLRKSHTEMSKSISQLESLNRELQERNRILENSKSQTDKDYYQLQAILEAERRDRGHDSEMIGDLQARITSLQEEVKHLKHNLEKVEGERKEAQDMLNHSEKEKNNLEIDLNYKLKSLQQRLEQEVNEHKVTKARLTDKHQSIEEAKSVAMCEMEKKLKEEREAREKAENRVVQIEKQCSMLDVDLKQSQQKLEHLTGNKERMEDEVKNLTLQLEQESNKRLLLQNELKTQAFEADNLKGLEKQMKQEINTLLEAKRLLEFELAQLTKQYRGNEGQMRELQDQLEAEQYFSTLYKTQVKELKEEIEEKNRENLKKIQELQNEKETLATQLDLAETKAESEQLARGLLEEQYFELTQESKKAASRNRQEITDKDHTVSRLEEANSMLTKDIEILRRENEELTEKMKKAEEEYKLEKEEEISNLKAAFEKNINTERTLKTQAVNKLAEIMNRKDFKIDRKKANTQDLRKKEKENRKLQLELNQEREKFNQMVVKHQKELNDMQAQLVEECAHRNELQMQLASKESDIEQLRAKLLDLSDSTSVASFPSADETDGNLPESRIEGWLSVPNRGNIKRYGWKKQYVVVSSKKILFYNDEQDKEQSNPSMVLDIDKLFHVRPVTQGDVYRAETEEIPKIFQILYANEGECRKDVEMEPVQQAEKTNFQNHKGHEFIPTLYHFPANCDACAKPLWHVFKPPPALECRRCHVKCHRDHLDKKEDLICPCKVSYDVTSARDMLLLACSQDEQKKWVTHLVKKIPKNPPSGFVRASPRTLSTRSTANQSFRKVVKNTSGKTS
Assay: ROCK-I inhibition assay (radioactive enzyme assay, MBP substrate)
Type: biochemical
Conditions: Table 6; enzyme inhibition data (Ki)
Method: Compounds were screened for their ability to inhibit ROCK using a standard radioactive enzyme assay. Assays were carried out in a solution containing 100 mM HEPES (pH 7.5), 10 mM MgCl2, 25 mM NaCl, 2 mM DTT, and 1.5% DMSO. Final substrate concentrations in the assay were 13 μM [γ-^33P] […] 50 μl of Optima Gold scintillation fluid (Perkin Elmer) was added and the plates were counted on a Top Count (Perkin Elmer). […]
QUANTITY MEASURED: Ki

CCN(Cc1ccccc1)C(=O)c1ccc(-c2ccnc3[nH]ccc23)s1 = < 0.5 µM
Cc1cccc(C)c1-c1ccnc2[nH]ccc12 = > 4 µM
c1ccc(COc2ccccc2-c2ccnc3[nH]ccc23)cc1 = > 4 µM
N#CCCN(CC(F)(F)F)C(=O)c1csc(-c2ccnc3[nH]ccc23)n1 = < 0.5 µM
COc1ccc(F)cc1-c1ccnc2[nH]ccc12 = 0.5 to 5 µM

Consider the molecule `CC(=O)c1ccccc1-c1ccnc2[nH]ccc12` and give its measured Ki.
> 4 µM

Sample `O=C(NC1CCCCC1)c1cc(-c2ccnc3[nH]ccc23)c[nH]1` — what was its Ki?
< 0.5 µM

Returns the measured Ki for the input molecule. Input: `c1ccc2c(c1)Oc1c(cccc1-c1ccnc3[nH]ccc13)S2`
> 4 µM

If you can, please state the reported Ki value of `CC(C)CN(C)C(=O)c1cc(-c2ccnc3[nH]ccc23)c[nH]1` .
0.5 to 5 µM

* * *

Below, each of the compounds is paired with its reported Ki value.
molecular target: UniProt O60674; test: JAK2 inhibition assay (as Example 3 with JAK-2 enzyme); assay type: biochemical; settings: Table 6; enzyme inhibition data (Ki)

Record excerpt, results attached:
O=C(c1csc(-c2ccnc3[nH]ccc23)n1)N1CCC(CO)CC1 = 500 to 5000 nM
Cc1cc(C)c(-c2ccnc3[nH]ccc23)c(C)c1 = > 5000 nM
O=C(c1cc(-c2c(F)cnc3[nH]ccc23)c[nH]1)N(CCC(F)(F)F)Cc1ccccc1 = < 500 nM
CC(C)CNC(=O)c1cc(-c2ccnc3[nH]ccc23)c[nH]1 = < 500 nM
CCN(Cc1ccccn1)C(=O)c1cc(-c2c(Cl)cnc3[nH]ccc23)c[nH]1 = < 500 nM
N#CC1CCCN1C(=O)c1cc(-c2c(Cl)cnc3[nH]ccc23)c[nH]1 (stereo not drawn) = < 500 nM

Fill blank: measured Ki of the compound `Clc1ccc(-c2c(Cl)cnc3[nH]ccc23)s1` is ____.
< 500 nM

# query: Ki of entry `O=C(NCCC(F)(F)F)c1ccccc1-c1ccnc2[nH]ccc12`
> 5000 nM

What measured Ki goes with `CCN(Cc1ccccc1)C(=O)c1cc(-c2c(F)cnc3[nH]ccc23)c[nH]1` ?
< 500 nM

Returns the measured Ki for the input compound. Input: `CNC(=O)c1cc(-c2c(Cl)cnc3[nH]ccc23)c[nH]1`
< 500 nM

* * *

target: JAK2 (Homo sapiens, UniProt O60674); assay: JAK2 inhibition assay (as Example 3 with JAK-2 enzyme); type: biochemical; settings: Table 6; enzyme inhibition data (Ki)
Sequence (O60674 whole entry): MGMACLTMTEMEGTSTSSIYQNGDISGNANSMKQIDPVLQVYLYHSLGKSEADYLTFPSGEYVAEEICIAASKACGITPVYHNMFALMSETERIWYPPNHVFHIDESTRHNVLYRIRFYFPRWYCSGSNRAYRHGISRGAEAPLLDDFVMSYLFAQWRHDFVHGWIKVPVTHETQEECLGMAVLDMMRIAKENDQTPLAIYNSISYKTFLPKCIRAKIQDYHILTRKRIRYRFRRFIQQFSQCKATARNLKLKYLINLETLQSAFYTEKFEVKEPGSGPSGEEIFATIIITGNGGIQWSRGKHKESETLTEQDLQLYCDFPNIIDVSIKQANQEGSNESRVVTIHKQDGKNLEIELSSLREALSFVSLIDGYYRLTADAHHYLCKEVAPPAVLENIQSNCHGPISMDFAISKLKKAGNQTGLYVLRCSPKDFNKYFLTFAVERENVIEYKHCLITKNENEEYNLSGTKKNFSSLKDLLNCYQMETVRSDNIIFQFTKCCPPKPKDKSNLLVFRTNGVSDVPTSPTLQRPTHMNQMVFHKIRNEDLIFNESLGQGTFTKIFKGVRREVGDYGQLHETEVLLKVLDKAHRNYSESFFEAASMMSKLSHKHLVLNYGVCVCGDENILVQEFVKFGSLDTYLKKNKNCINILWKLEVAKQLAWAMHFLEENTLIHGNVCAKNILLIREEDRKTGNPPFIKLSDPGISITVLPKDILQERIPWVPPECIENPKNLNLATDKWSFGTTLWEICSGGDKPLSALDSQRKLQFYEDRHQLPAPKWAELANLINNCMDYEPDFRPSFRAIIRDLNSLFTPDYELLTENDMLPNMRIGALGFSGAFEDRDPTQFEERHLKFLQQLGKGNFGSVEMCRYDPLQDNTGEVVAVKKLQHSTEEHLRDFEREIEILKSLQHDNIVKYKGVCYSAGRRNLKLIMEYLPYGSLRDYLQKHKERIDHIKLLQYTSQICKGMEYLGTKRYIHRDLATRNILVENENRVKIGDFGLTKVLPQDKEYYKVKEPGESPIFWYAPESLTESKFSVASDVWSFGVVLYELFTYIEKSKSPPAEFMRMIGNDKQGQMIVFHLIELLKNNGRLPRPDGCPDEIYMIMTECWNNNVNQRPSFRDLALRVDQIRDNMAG
pKi: −log10 of the molar value.
QUANTITY MEASURED: pKi

Find the recorded pKi belonging to Cc1ccc(C)c(-c2ccnc3[nH]ccc23)c1 [compound 209] and report it.
< 5.30

Reported pKi for CCCCN(CC#N)C(=O)c1cc(-c2ccnc3[nH]ccc23)c[nH]1 [compound 300] : what is it?
> 6.30

Need pKi of Clc1cccc(-c2ccnc3[nH]ccc23)c1Cl [compound 224] , thanks.
5.30 to 6.30

Give the measured pKi of C=CCN(C(=O)c1csc(-c2ccnc3[nH]ccc23)n1)C1CCCC1 [compound 410] .
> 6.30

Can you look up the measured pKi of N#Cc1ccc(Cl)cc1Nc1c(Cl)cnc2[nH]ccc12 [compound 159] for me?
> 6.30

* * *

Documented Ki across a set of compounds
biological target: ROCK I (Homo sapiens); test: ROCK-I inhibition assay (radioactive enzyme assay, MBP substrate); format: biochemical; settings: Table 6; enzyme inhibition data (Ki)

In the examples that follow, each entry is paired with its recorded Ki.
O=C1NCCCC[C@@H]1Nc1c(Cl)cnc2[nH]ccc12 [compound 228] = > 4000 nM
O=C(c1cc(-c2ccnc3[nH]ccc23)c[nH]1)N1CCC(O)C1 (stereo not drawn) [compound 366] = 500 to 5000 nM
CC1CCCC(Nc2c(Cl)cnc3[nH]ccc23)C1 (stereo not drawn) [compound 161] = < 500 nM
CC1CCCCN1C(=O)c1csc(-c2ccnc3[nH]ccc23)n1 (stereo not drawn) [compound 420] = < 500 nM
N#Cc1ccc(Nc2c(Cl)cnc3[nH]ccc23)c(Cl)c1 [compound 163] = > 4000 nM

I'd like to know its Ki. The compound in question is O=C(NCC(F)(F)F)c1ccccc1-c1ccnc2[nH]ccc12 [compound 253]
> 4000 nM

Would you kindly share the measured Ki for COc1ccc(Cl)cc1-c1ccnc2[nH]ccc12 [compound 235] ?
500 to 5000 nM

# Ki lookup, item CN(C)CCCN(C)C(=O)c1cc(-c2ccnc3[nH]ccc23)c[nH]1 [compound 365]
< 500 nM

Reported Ki for CC1CCCN1C(=O)c1csc(-c2ccnc3[nH]ccc23)n1 (stereo not drawn) [compound 419] : what is it?
< 500 nM

* * *

target: ROCK I (Homo sapiens); assay: ROCK-I inhibition assay (radioactive enzyme assay, MBP substrate); type: biochemical; conditions: Table 6; enzyme inhibition data (Ki)
QUANTITY MEASURED: Ki

These recorded examples may help you get a feel for the data.
CCCCN(CC#N)C(=O)c1cc(-c2c(Cl)cnc3[nH]ccc23)c[nH]1 = 0.5 to 5 µM
CCCN(CC1CC1)C(=O)c1ccc(-c2ccnc3[nH]ccc23)s1 = < 0.5 µM
COc1cccc(OC)c1-c1ccnc2[nH]ccc12 = > 4 µM
CCCCN(CCC#N)C(=O)c1ccc(-c2ccnc3[nH]ccc23)s1 = < 0.5 µM

State its Ki on ROCK I (Homo sapiens): `c1ccc(-c2ccccc2-c2ccnc3[nH]ccc23)cc1`
> 4 µM

* * *

target: JAK3 (Homo sapiens); assay: JAK3 inhibition assay (33P incorporation into poly(Glu)4Tyr); assay type: biochemical; details: Table 6; enzyme inhibition data (Ki)
Sequence (P52333 whole entry): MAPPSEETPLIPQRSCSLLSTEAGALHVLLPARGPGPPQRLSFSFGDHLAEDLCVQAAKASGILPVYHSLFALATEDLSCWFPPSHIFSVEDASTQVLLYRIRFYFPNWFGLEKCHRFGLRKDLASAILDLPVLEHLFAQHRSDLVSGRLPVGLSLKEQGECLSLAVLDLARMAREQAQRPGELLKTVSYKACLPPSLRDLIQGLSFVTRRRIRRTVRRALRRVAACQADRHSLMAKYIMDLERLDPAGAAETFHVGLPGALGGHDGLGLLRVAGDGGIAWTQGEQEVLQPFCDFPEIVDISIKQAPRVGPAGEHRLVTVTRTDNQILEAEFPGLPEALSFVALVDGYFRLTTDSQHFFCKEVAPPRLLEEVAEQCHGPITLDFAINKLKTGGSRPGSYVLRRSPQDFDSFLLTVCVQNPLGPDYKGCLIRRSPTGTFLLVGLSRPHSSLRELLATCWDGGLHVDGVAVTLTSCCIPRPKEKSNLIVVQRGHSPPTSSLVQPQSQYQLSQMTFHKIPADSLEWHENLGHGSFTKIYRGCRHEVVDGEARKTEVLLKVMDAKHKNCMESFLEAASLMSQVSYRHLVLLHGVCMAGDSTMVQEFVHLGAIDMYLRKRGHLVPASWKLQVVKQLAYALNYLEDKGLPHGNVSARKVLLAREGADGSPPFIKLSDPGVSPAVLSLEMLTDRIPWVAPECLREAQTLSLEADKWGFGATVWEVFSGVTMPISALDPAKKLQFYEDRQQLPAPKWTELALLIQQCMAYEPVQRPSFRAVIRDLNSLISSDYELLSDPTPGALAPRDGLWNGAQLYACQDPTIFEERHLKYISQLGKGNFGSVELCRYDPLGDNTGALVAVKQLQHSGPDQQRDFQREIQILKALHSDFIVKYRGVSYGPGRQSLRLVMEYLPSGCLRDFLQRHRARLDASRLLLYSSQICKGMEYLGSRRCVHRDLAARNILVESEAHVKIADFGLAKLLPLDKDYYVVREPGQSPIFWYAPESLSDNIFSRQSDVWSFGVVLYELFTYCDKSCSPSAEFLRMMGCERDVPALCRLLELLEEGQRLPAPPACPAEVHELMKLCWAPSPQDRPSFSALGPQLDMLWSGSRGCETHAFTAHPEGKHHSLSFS
Let's look at some compounds and their measured Ki.

Examples from the recorded data:
CCN(Cc1ccccc1)C(=O)c1csc(-c2ccnc3[nH]ccc23)n1 = < 500 nM
Cc1cccc(-c2ccnc3[nH]ccc23)c1C = 500 to 5000 nM
N#Cc1ccc(Cl)cc1Nc1c(Cl)cnc2[nH]ccc12 = < 500 nM

Would you mind telling me what Ki value was observed for `COCCN(CCOC)C(=O)c1cc(-c2ccnc3[nH]ccc23)c[nH]1` ?
< 500 nM

// returns reported Ki for input `CCOc1cccc(-c2ccnc3[nH]ccc23)c1`
< 500 nM

Looking for the measured Ki of C=CCN(C(=O)c1cc(-c2c(F)cnc3[nH]ccc23)c[nH]1)C(C)c1ccccc1 (stereo not drawn) , can you help?
< 500 nM

Value lookup for Ki; key = `Clc1ccc(-c2ccnc3[nH]ccc23)c(Cl)c1`
500 to 5000 nM

Return reported Ki; argument: `O=C(NC1CCCCC1)c1cc(-c2ccnc3[nH]ccc23)c[nH]1`
< 500 nM

// Ki lookup, key: `O=C(NCC(F)F)c1cc(-c2ccnc3[nH]ccc23)c[nH]1`
< 500 nM

* * *

biological target: JAK3 (Homo sapiens); assay: JAK3 inhibition assay (33P incorporation into poly(Glu)4Tyr); type: biochemical; conditions: Table 6; enzyme inhibition data (Ki)
Recorded Ki, one value per entry.

Example cases with answers are listed next.
CCC(=O)Nc1cccc(Nc2c(Cl)cnc3[nH]ccc23)c1 [compound 155] = < 500 nM
O=C(NCC(F)(F)F)c1ccc(-c2ccnc3[nH]ccc23)cc1 [compound 269] = < 500 nM
O=C(CNc1nc(-c2ccnc3[nH]ccc23)ncc1F)NCC(F)(F)F [compound 192] = < 500 nM
CCNC(=O)c1cc(-c2ccnc3[nH]ccc23)c[nH]1 [compound 282] = < 500 nM
CC(C)CN(CC(C)C)C(=O)c1cc(-c2ccnc3[nH]ccc23)c[nH]1 [compound 311] = < 500 nM

Please give the measured Ki for this molecule: Clc1cccc(-c2ccnc3[nH]ccc23)c1Cl [compound 224]
500 to 5000 nM

Sample Cc1cccc(C)c1-c1ccnc2[nH]ccc12 [compound 217] — what was its Ki?
> 5000 nM

Would you mind telling me what Ki value was observed for CC(C)CN(CC(C)C)C(=O)c1ccc(-c2ccnc3[nH]ccc23)s1 [compound 327] ?
500 to 5000 nM

Consider the molecule shown here: CN(CCC#N)C(=O)c1ccc(-c2ccnc3[nH]ccc23)s1 [compound 322] What is its recorded Ki?
< 500 nM
